Each recorded value in this set is attributed to patent US7132437B2.

# key: entry, value: Assay B pA2
tested on: rabbit aortic rings; experiment: Assay B: In Vitro Vascular Smooth Muscle Response for AII; assay type: cell-based; details: antagonist at 10^-5 M, two values per cell = aorta rings from two rabbits
Please respond with just the number, no unit label.

COMPOUND	TARGET UNDER TEST	Assay B pA2
CCCCc1nc(CC(OCC)OCC)n(Cc2ccc(-c3ccccc3-c3nnn[nH]3)cc2)n1 (single isomer, unassigned)	rabbit aortic rings	6.85
CCCCc1nc(C(OC)OC)nn1Cc1ccc(-c2ccccc2-c2nnn[nH]2)cc1 (single isomer, unassigned)	rabbit aortic rings	7.73
CCCCc1nc(CC)nn1Cc1ccc(-c2ccccc2-c2nnn[nH]2)cc1 (single isomer, unassigned)	rabbit aortic rings	7.84
CCCCc1nc(CCC2CCCCC2)n(Cc2ccc(-c3ccccc3-c3nnn[nH]3)cc2)n1 (single isomer, unassigned)	rabbit aortic rings	6.26

Now look at this entry.
Requested field: Assay B pA2. Item: CCCCc1nc(C=O)nn1Cc1ccc(-c2ccccc2-c2nnn[nH]2)cc1
7.07

====

biological target: smooth muscle angiotensin II receptor; construct: Rat uterine membranes were prepared from fresh tissue; experiment: Assay A: Angiotensin II Binding Activity; conditions: rat uterine membrane preparation, displacement of 125I-AII
Entry class follows IC50: bin 0 = under 20 nM, bin 1 = from 20 nM up to 400 nM, bin 2 = 400 nM and over

Would you please look over these solved cases?
MOLECULE	ASSIGNED LABEL
CCCCc1nc(CN)nn1Cc1ccc(-c2ccccc2-c2nnn[nH]2)cc1 [Example 3]	bin 0
CCCCc1nc(-c2ccccc2)n(Cc2ccc(-c3ccccc3-c3nnn[nH]3)cc2)n1 (single isomer, unassigned) [Example 22]	bin 2
CCCCc1nc(CCc2ccccc2)nn1Cc1ccc(-c2ccccc2-c2nnn[nH]2)cc1 (single isomer, unassigned) [Example 26]	bin 0
CCCCc1nc(CCC(=O)O)nn1Cc1ccc(-c2ccccc2-c2nnn[nH]2)cc1 [Example 9]	bin 2
CCCCc1nc(C(F)F)n(Cc2ccc(-c3ccccc3-c3nnn[nH]3)cc2)n1 (single isomer, unassigned) [Example 48]	bin 2
CCCCc1nc(CCC2CCCCC2)n(Cc2ccc(-c3ccccc3-c3nnn[nH]3)cc2)n1 (single isomer, unassigned) [Example 42]	bin 1
CCCCc1nc(CC(OCC)OCC)nn1Cc1ccc(-c2ccccc2-c2nnn[nH]2)cc1 (single isomer, unassigned) [Example 38]	bin 0
CCCc1nc(CN)nn1Cc1ccc(-c2ccccc2-c2nnn[nH]2)cc1 [Example 12]	bin 0

Record CCCCc1nc(C)nn1Cc1ccc(-c2ccccc2-c2nnn[nH]2)cc1 (single isomer, unassigned) [Example 32] — which class?
bin 0

Now try CCCCc1nc(CCC(C)C)nn1Cc1ccc(-c2ccccc2C(=O)O)cc1 [Example 17] .
bin 0

Now try CCCCc1nc(CCc2ccccc2)n(Cc2ccc(-c3ccccc3-c3nnn[nH]3)cc2)n1 (single isomer, unassigned) [Example 25] .
bin 2

====

# key: entry, value: Assay B pA2
test system: rabbit aortic rings; experiment: Assay B: In Vitro Vascular Smooth Muscle Response for AII; format: cell-based; details: antagonist at 10^-5 M, two values per cell = aorta rings from two rabbits
Please respond with just the number, no unit label.

Example results:
MOLECULE	MEASURED ENDPOINT	DATA VALUE
CCCCc1ncnn1Cc1ccc(-c2ccccc2C(=O)O)cc1 (single isomer, unassigned) [Example 18]	Assay B pA2	6.09
CCCCc1nc(C(F)F)nn1Cc1ccc(-c2ccccc2-c2nnn[nH]2)cc1 (single isomer, unassigned) [Example 47]	Assay B pA2	7.58
CCCCc1nc(-c2ccccc2)n(Cc2ccc(-c3ccccc3-c3nnn[nH]3)cc2)n1 (single isomer, unassigned) [Example 22]	Assay B pA2	6.46
CCCCc1ncn(Cc2ccc(-c3ccccc3C(=O)O)cc2)n1 (single isomer, unassigned) [Example 19]	Assay B pA2	5.35
CCCCc1nc(CCc2ccccc2)n(Cc2ccc(-c3ccccc3-c3nnn[nH]3)cc2)n1 (single isomer, unassigned) [Example 25]	Assay B pA2	6.73

Requested field: Assay B pA2. Item: CCCCc1nc(Cl)nn1Cc1ccc(-c2ccccc2C(=O)O)cc1 (single isomer, unassigned) [Example 6]
6.82

Now try CCCCc1nc(CCc2ccccc2)nn1Cc1ccc(-c2ccccc2-c2nnn[nH]2)cc1 (single isomer, unassigned) [Example 26] .
9.66

====

# key: entry, value: melting point

Example results:
COMPOUND	MEASURED ENDPOINT	DATA VALUE
CCCCc1nc(C)nn1Cc1ccc(-c2ccccc2-c2nnn[nH]2)cc1 (single isomer, unassigned) [Example 32]	melting point	170 to 170.5 °C
CCCCCCCCc1nc(CCCC)nn1Cc1ccc(-c2ccccc2-c2nnn[nH]2)cc1 (single isomer, unassigned) [Example 28]	melting point	136.5 to 138 °C
CCCCc1nc(-c2ccccc2)n(Cc2ccc(-c3ccccc3-c3nnn[nH]3)cc2)n1 (single isomer, unassigned) [Example 22]	melting point	205 °C (dec.)
CCCCc1nc(C2CCCCC2)n(Cc2ccc(-c3ccccc3-c3nnn[nH]3)cc2)n1 [Example 65]	melting point	157.5 to 159.5 °C
CCCCc1nc(C(=O)CCC)nn1Cc1ccc(-c2ccccc2-c2nnn[nH]2)cc1 [Example 30]	melting point	150.5 to 152.5 °C

Requested field: melting point. Item: CCCCc1nc(C(OC)OC)n(Cc2ccc(-c3ccccc3-c3nnn[nH]3)cc2)n1 (single isomer, unassigned) [Example 23]
152.5 to 153.5 °C

Now try CCCCc1nc(CCc2ccccc2)nn1Cc1ccc(-c2ccccc2-c2nnn[nH]2)cc1 (single isomer, unassigned) [Example 26] .
156 to 157.2 °C

Now try CCCCc1nc(-c2ccccc2)nn1Cc1ccc(-c2ccccc2-c2nnn[nH]2)cc1 (single isomer, unassigned) [Example 21] .
113 °C (dec.)

Now try CCCCc1nc(C2CCCCC2)nn1Cc1ccc(-c2ccccc2-c2nnn[nH]2)cc1 [Example 66] .
125 to 127 °C

====

tested on: AII pressor response; experiment: Assay C: In Vivo Intraduodenal Pressor Assay Response for AII Antagonists; design: species or system Sprague-Dawley rats; details: 30 mg/kg intraduodenally
MEASURED ENDPOINT: Assay C Duration (min)
Report only the number, with the unit min understood.

COMPOUND	Assay C Duration, min
CCCCc1nc(CC(=O)O)nn1Cc1ccc(-c2ccccc2-c2nnn[nH]2)cc1 [Example 7]	130
CCCCc1nc(CCC(=O)O)nn1Cc1ccc(-c2ccccc2-c2nnn[nH]2)cc1 [Example 9]	75

Now look at this entry.
Requested field: Assay C Duration. Item: CCCCc1nc(C(F)(F)CCC)nn1Cc1ccc(-c2ccccc2C(=O)O)cc1 [Example 10]
240

====

# key: entry, value: pIC50
Target: smooth muscle angiotensin II receptor
Construct: Rat uterine membranes were prepared from fresh tissue
Experiment: Assay A: Angiotensin II Binding Activity
Conditions: rat uterine membrane preparation, displacement of 125I-AII
Protocol: Assay A: Angiotensin II Binding Activity Compounds of Formula I were tested for ability to bind to the smooth muscle angiotensin II receptor using a rat uterine membrane preparation. […] Filters were assayed for radioactivity in a Micromedic gamma counter. […] Specific binding was calculated as total binding minus nonspecific binding. […] Binding data were analyzed by a nonlinear least-squares curve fitting program.
Field pIC50 (float): negative decimal logarithm of the concentration in molar.

Example results:
COMPOUND	pIC50
CCCCc1nc(-c2ccccc2)nn1Cc1ccc(-c2ccccc2-c2nnn[nH]2)cc1 (single isomer, unassigned)	7.06
CCCCc1nc(CNC(C)=O)nn1Cc1ccc(-c2ccccc2-c2nnn[nH]2)cc1	7.85

Now look at this entry.
Requested field: pIC50. Item: CCCCc1nc(CCCN)nn1Cc1ccc(-c2ccccc2-c2nnn[nH]2)cc1
6.70

====

target: smooth muscle angiotensin II receptor; construct: Rat uterine membranes were prepared from fresh tissue; test: Assay A: Angiotensin II Binding Activity; conditions: rat uterine membrane preparation, displacement of 125I-AII
# key: entry, value: pIC50
Field pIC50 (float): negative decimal logarithm of the concentration in molar.

COMPOUND	MEASURED ENDPOINT	DATA VALUE
CCCCc1nc(C(F)F)nn1Cc1ccc(-c2ccccc2-c2nnn[nH]2)cc1 (single isomer, unassigned)	pIC50	7.68
CCCCc1nc(C(OC)OC)nn1Cc1ccc(-c2ccccc2-c2nnn[nH]2)cc1 (single isomer, unassigned)	pIC50	8.00
CCCCc1nc(CCC)n(Cc2ccc(-c3ccccc3C(=O)O)cc2)n1	pIC50	7.80
CCCCc1nc(C(F)(F)C(F)(F)C(F)(F)F)nn1Cc1ccc(-c2ccccc2-c2nnn[nH]2)cc1	pIC50	7.36
CCCCc1nc(CC(=O)O)nn1Cc1ccc(-c2ccccc2-c2nnn[nH]2)cc1	pIC50	7.08
CCCCc1ncn(Cc2ccc(-c3ccccc3C(=O)O)cc2)n1 (single isomer, unassigned)	pIC50	4.92
CCCCCCCCc1nc(CCCC)nn1Cc1ccc(-c2ccccc2-c2nnn[nH]2)cc1 (single isomer, unassigned)	pIC50	6.24
CCCCCCCCc1nc(CCCC)n(Cc2ccc(-c3ccccc3-c3nnn[nH]3)cc2)n1 (single isomer, unassigned)	pIC50	6.80
CCCCc1nc(CC)n(Cc2ccc(-c3ccccc3-c3nnn[nH]3)cc2)n1 (single isomer, unassigned)	pIC50	7.08
CCCCc1nc(CC)nn1Cc1ccc(-c2ccccc2-c2nnn[nH]2)cc1 (single isomer, unassigned)	pIC50	8.00

Requested field: pIC50. Item: CCCCc1nc(Cl)n(Cc2ccc(-c3ccccc3C(=O)O)cc2)n1 (single isomer, unassigned)
4.77

Now try CCCCc1nc(C(OC)OC)n(Cc2ccc(-c3ccccc3-c3nnn[nH]3)cc2)n1 (single isomer, unassigned) .
6.37

Now try CCCCc1nc(CCC2CCCCC2)nn1Cc1ccc(-c2ccccc2-c2nnn[nH]2)cc1 (single isomer, unassigned) .
7.72

Now try CCCCc1ncnn1Cc1ccc(-c2ccccc2C(=O)O)cc1 (single isomer, unassigned) .
6.01

Now try CCCCc1nc(C)n(Cc2ccc(-c3ccccc3-c3nnn[nH]3)cc2)n1 (single isomer, unassigned) .
6.20

Now try CCCCc1nc(CC(OCC)OCC)n(Cc2ccc(-c3ccccc3-c3nnn[nH]3)cc2)n1 (single isomer, unassigned) .
6.47

Now try CCCCc1nc(C(F)(F)CCC)n(Cc2ccc(-c3ccccc3C(=O)O)cc2)n1 .
6.80
